Tested on: West Nile virus (WNV-GFP)
EXPERIMENTAL_DETAILS: microbe, parasite or virus in culture
Assay type: cell-based
CONDITION_NOTES: Huh-7, 48 h
QUANTITY_NAME: pEC50
Scale explanation: pEC50 corresponds to minus log10 of a concentration expressed in moles per litre.

Ask: # lookup: pEC50 of CCCCCCOC(=O)[C@H](CCC(=O)NCCC1CCN(Cc2ccccc2)CC1)NC(=O)OCc1ccccc1
Reply: 4.44

Ask: What does the record list as pEC50 for CCOC(=O)[C@H](CCC(=O)NCCC1CCN(Cc2ccccc2)CC1)NC(=O)OCc1ccccc1 ?
Reply: 4.57
